Test system: UACC-62 melanoma
assayNotes: NCI tumour cell line growth inhibition, 48 h
recordedEndpoint: TGI (µM)

>>> assayvalue("COc1ccc(/C=C2/SC(Nc3nc(-c4nc(NC5=NC(=O)/C(=C\\c6ccc(OC)cc6)S5)sc4C)c(C)s3)=NC2=O)cc1")
6.62
>>> assayvalue("Oc1c(Cl)cc(Cl)c2ccc(Cn3cc(-c4ccc(C(F)(F)F)cc4)nn3)nc12")
11.9

###

Tested on: SK-MEL-5 melanoma
assayNotes: NCI tumour cell line growth inhibition, 48 h
recordedEndpoint: log10 of TGI (log10 of the value in µM)

>>> assayvalue("CC1=CC[C@@]2(C)CC[C@](O)(C(C)C)C2C(OC(=O)c2ccccc2)C1 (stereo partly specified)")
1.54
>>> assayvalue("CCOc1ccn(-c2ccc(F)cc2)c(=O)c1C(=O)Nc1ccc(Oc2ccnc(N)c2Cl)c(F)c1")
1.41
>>> assayvalue("Cc1ccc2c(=O)cc(-c3ccc4ccccc4c3)[nH]c2n1")
1.10
>>> assayvalue("CCOC(=O)/C=C(/C(=O)OCC)n1ccc(=O)n(Cc2cnnn2COCCOC(C)=O)c1=O")
1.58
>>> assayvalue("C=CCC(N[C@@H](CO)c1ccccc1)c1cn(C(=O)OCC)c2ccccc12 (stereo partly specified)")
1.46
>>> assayvalue("O=Cc1cc(C(=O)OCc2ccccc2)n(S(=O)(=O)c2ccccc2)c1")
1.31
>>> assayvalue("Cc1cccc2sc(-c3ccc(O)cc3)nc12")
1.31
>>> assayvalue("CC[C@@H](C)/C=C(C)/C=C/C(=O)c1c(O)c(-c2ccc(O)cc2)cn(O)c1=O")
-0.25
>>> assayvalue("Cc1cc2nc3ccccc3n2c2nc(N)ccc12")
1.60
>>> assayvalue("Cc1cc(=O)n(-c2cc3cccccc-3n2)[nH]1")
0.73
>>> assayvalue("CC(=O)N1N=C(c2ccc(Nc3nc(Nc4ccc(F)cc4)nc(Nc4ccc(F)cc4)n3)cc2)CC1c1ccc(N(C)C)cc1 (stereo unspecified)")
1.11

###

Tested on: LXFL 529 NSCLC
assayNotes: NCI tumour cell line growth inhibition, 48 h
TGI listing for selected compounds.
recordedEndpoint: TGI (µM)

>>> assayvalue("O=C(/C=C\\c1cccc2ccccc12)c1ccc(Cl)cc1Cl")
32.8
>>> assayvalue("COc1cc(OC)cc(-c2cc(=O)c3cc4c(cc3[nH]2)OCO4)c1")
20.6
>>> assayvalue("Cc1cc(=O)n(-c2cc3cccccc-3n2)[nH]1")
16.9

###

System: ACHN renal
assayNotes: NCI tumour cell line growth inhibition, 48 h
recordedEndpoint: TGI

>>> assayvalue("COc1cc(C2c3cc4c(cc3C(OC(=O)C[n+]3ccccc3)C3COC(=O)C23)OCO4)cc(OC)c1OC (stereo unspecified)")
"> 100 µM"
>>> assayvalue("Nc1nc(/C=C\\c2ccccc2)nc(N2CCN(c3ccccc3)CC2)n1")
"> 100 µM"
>>> assayvalue("CC1=C(O)c2ccccc2C(=O)C1=O")
"> 100 µM"
>>> assayvalue("O=C1c2ccccc2C2CCC1c1ccccc12 (stereo unspecified)")
"> 100 µM"
>>> assayvalue("CSc1ccc(Nc2cc(=O)[nH]c(=O)[nH]2)cc1")
"> 100 µM"
>>> assayvalue("Cc1cc2nc3ccccc3n2c2nc(N)ccc12")
"> 100 µM"
>>> assayvalue("CN(C)N1C(=O)S/C(=C\\c2ccc([N+](=O)[O-])cc2)C1=O")
"> 100 µM"
>>> assayvalue("CCNC(=O)OCc1c(COC(=O)NCC)c(-c2ccc(Cl)c(Cl)c2)n2c1CCC2")
"37.5 µM"
>>> assayvalue("CO[C@H]1CC(O[C@@H]2/C(C)=C/C[C@@H]3C[C@@H](C[C@]4(CC[C@H](C)[C@@H](C5CCCCC5)O4)O3)OC(=O)[C@@H]3C=C(C)/C(=N/O)[C@H]4OC/C(=C\\C=C\\[C@@H]2C)[C@]43O)O[C@@H](C)C1O (stereo partly specified)")
"2.01 µM"
>>> assayvalue("Cc1cccc2sc(-c3ccc(O)cc3)nc12")
"33 µM"
>>> assayvalue("C=C1C(=O)O[C@H]2C1C[C@@H](OC(C)=O)/C(C)=C/CC[C@@]1(C)O[C@H]21 (stereo partly specified)")
"15.2 µM"

###

Test system: OVCAR-5 ovarian
assayNotes: NCI tumour cell line growth inhibition, 48 h; in the data active means GI50 below about 0.43 µM; inactive means the rest
Classes used: Y for active, N for inactive

>>> cat("COc1cccc(Nc2nc3ccccc3c3occc23)c1")
"N"
>>> cat("CC(=O)[CH-]C(=O)c1ccccc1.CC(=O)[CH-]C(=O)c1ccccc1.CC(=O)[CH-]C(=O)c1ccccc1.[Nd+3].[OH3+]")
"N"
>>> cat("C#CCN(c1ccc(C(=O)N[C@@H](CCC(=O)N[C@H](CCC(=O)O)C(=O)O)C(=O)O)cc1)C1CCc2cc3nc(CO)[nH]c(=O)c3cc21 (some centres not stated)")
"N"
>>> cat("CC(=O)C1=C(O)C=C2Oc3c(C(=O)/C=C/c4cc(Cl)cc(Cl)c4)c(O)c(C)c(O)c3[C@]2(C)C1=O")
"N"
>>> cat("CCN(Cc1cccc(Cl)c1)c1ccc(CO)c(Cl)c1")
"Y"
>>> cat("O=[N+]([O-])c1cc([N+](=O)[O-])c(Nn2c3ccccc3c3ccccc32)c([N+](=O)[O-])c1")
"Y"
>>> cat("Cc1cc2c(-c3nc4ccccn4c3N)c(O)c(O)cc2c(O)c1-c1c(C)cc2c(-c3nc4ccccn4c3N)c(O)c(O)cc2c1O")
"N"
>>> cat("Nc1nc(/C=C\\c2ccccc2)nc(N2CCN(c3ccccc3)CC2)n1")
"N"
>>> cat("CCNC(=O)Oc1ccc(/C(=C(/C)Cc2ccc(OC)cc2)c2ccc(OCCN(CC)CC)cc2)cc1")
"N"
>>> cat("C/C(=N\\NC(=O)c1ccccc1O)c1cccc(/C(C)=N/NC(=O)c2ccccc2O)n1.O=S(=O)([O-])[O-].[Fe+2]")
"N"
>>> cat("COC(=O)c1oc2c(C(=O)/C=C/c3ccc(OC)cc3)c(OCCN(C)C)ccc2c1C")
"N"
>>> cat("Clc1ccccc1-c1nnc2c(Cc3ccccc3)nc3ccccc3n12")
"N"

###

Tested on: LOX IMVI melanoma
assayNotes: NCI tumour cell line growth inhibition, 48 h
Measured TGI accompanies every entry in the list below.
recordedEndpoint: TGI

>>> assayvalue("COc1cc(C(=O)c2cnc(-c3cccc4[nH]ccc34)[nH]2)cc(OC)c1OC")
"> 100 µM"
>>> assayvalue("O=[N+]([O-])c1ccc(-n2nc3ccc4c(no[n+]4[O-])c3n2)cc1")
"> 100 µM"
>>> assayvalue("O=C(NCC1CCCO1)c1ccc(NC2=C(Cl)C(=O)N(Cc3ccccc3)C2=O)cc1 (configuration not stated)")
"> 100 µM"
>>> assayvalue("COC(C)(C)/C=C/c1[nH]c2ccccc2c1CC(=O)NCCc1cn(C(c2ccccc2)(c2ccccc2)c2ccccc2)cn1")
"> 51.3 µM"
>>> assayvalue("CC[C@@H](C)/C=C(C)/C=C/C(=O)c1c(O)c(-c2ccc(O)cc2)cn(O)c1=O")
"7.64 µM"
>>> assayvalue("[B-][P+](CC[P+]1([B-])[C@@H](C)[C@@H](O)[C@H](O)[C@@H]1C)(c1ccccc1)c1ccccc1OC (some centres not stated)")
"8.51 µM"
>>> assayvalue("Clc1cccc(-c2nnc(-c3nn(-c4ccccc4)c4nc5ccccc5nc34)o2)c1")
"> 100 µM"

###

System: SK-MEL-2 melanoma
assayNotes: NCI tumour cell line growth inhibition, 48 h
Some molecules, each annotated with its measured log10(TGI).
recordedEndpoint: log10(TGI) (log10 of the value in µM)

>>> assayvalue("CC(C)=CCC[C@@H](C)C1=C(O)C(Nc2ccccc2Cl)=C(C)C(=O)C1=O")
1.67
>>> assayvalue("CN(CCCNC(=O)c1cn(C)c2c1Cc1ccccc1-2)CCCNC(=O)c1cn(C)c2c1Cc1ccccc1-2")
1.49
>>> assayvalue("CC(Nc1ccc(Cl)c(Cl)c1)c1ccncc1 (centres undefined)")
1.75
>>> assayvalue("O=C(c1ccccc1)N1CCC(CC2(c3cc4ccccc4[nH]3)OCCO2)CC1")
1.87
>>> assayvalue("Cn1cc2ccccc2c1-c1nc(F)nc(Oc2ccc3c(c2)CC[C@@H]2C3CC[C@@]3(C)C2C[C@H](O)[C@@H]3O)n1 (some centres undefined)")
1.58
>>> assayvalue("COc1cccc(C2c3cc4c(cc3OC(NNS(=O)(=O)c3ccc(C)cc3)C2C)OCO4)c1OC (centres undefined)")
0.86
>>> assayvalue("CCN(Cc1cccc(Cl)c1)c1ccc(CO)c(Cl)c1")
1.32

###

Tested on: SK-MEL-28 melanoma
assayNotes: NCI tumour cell line growth inhibition, 48 h
recordedEndpoint: GI50

>>> assayvalue("CCNC(=O)Oc1ccc(/C(=C(/C)Cc2ccc(OC)cc2)c2ccc(OCCN(CC)CC)cc2)cc1")
"1.76 µM"
>>> assayvalue("COc1cc(C2c3cc4c(cc3C(OC(=O)C[n+]3ccccc3)C3COC(=O)C23)OCO4)cc(OC)c1OC (centres undefined)")
"53 µM"
>>> assayvalue("O=C(NCC1CCCO1)c1ccc(NC2=C(Cl)C(=O)N(Cc3ccccc3)C2=O)cc1 (centres undefined)")
"18.6 µM"
>>> assayvalue("Clc1ccccc1-c1nnc2c(Cc3ccccc3)nc3ccccc3n12")
"> 48.8 µM"
